# Measured target: human muscarinic M3 receptor (Homo sapiens, UniProt P20309)
# Construct: expressed in transfected cells
# Sequence (P20309 whole entry): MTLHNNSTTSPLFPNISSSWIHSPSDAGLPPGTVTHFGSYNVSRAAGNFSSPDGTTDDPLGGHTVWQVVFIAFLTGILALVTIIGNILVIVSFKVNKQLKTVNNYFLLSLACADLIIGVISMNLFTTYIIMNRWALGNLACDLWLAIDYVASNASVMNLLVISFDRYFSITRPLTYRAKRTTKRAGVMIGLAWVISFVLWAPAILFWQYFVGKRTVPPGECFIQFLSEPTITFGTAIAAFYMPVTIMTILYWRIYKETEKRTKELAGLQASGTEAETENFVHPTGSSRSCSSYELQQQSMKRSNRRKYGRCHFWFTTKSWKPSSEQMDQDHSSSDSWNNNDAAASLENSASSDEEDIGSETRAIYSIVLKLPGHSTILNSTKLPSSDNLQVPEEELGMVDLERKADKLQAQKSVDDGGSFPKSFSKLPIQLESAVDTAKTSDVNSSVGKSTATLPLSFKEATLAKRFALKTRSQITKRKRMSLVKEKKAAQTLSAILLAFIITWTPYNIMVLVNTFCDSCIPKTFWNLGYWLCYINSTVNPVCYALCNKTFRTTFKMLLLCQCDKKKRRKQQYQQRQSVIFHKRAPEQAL
# Measurement protocol: Alphascreen Surefire phospho-ERK1/2 functional assay, M3
# Type: cell-based
# Experimental conditions: CHO, read-out: % Emax cf. ACh (M3), CHO cells stably expressing human M3; Emax relative to ACh
For each of the compounds below, state its Emax.
Answers are plain numbers, in %.

See these solved cases before continuing.
[[record]]
compound = "Cc1noc(N2CC3CCC2CC3N2CCC3(CC2)CNC(=O)O3)n1 (single isomer, unassigned) [12-2 Isomer 2]"
observed_measurement = 1

[[record]]
compound = "Cc1noc(N2CCC3(CC(N4CCC(n5cccn5)CC4)C3)C2)n1 (single isomer, unassigned) [2-1 Isomer 2]"
observed_measurement = 3

[[record]]
compound = "Cc1noc(N2CC3CC(N4CCC5(CC4)CNC(=O)O5)CC2C3)n1 (single isomer, unassigned) [11-3 Isomer 2]"
observed_measurement = 22


Batch of 3 compounds: report Emax for each.
1. Cc1noc(N2CC3CCC2CC3N2CCC3(CC2)CNC(=O)C3)n1 (single isomer, unassigned) [12-1 Isomer 2]
2. Cc1noc(N2CC3CCC2CC3N2CCC(n3cccn3)CC2)n1 (single isomer, unassigned) [7-1 Isomer 1]
3. Cc1noc(N2CC3CC(N4CCC5(CC4)CNC(=O)C5)CC2C3)n1 (single isomer, unassigned) [11-2 Isomer 2]

1: 2; 2: 7; 3: 5

Batch of 2 compounds: report Emax for each.
1. Cc1noc(N2CCCC(N3CCC4(CC3)CNC(=O)C4)CC2)n1 (single isomer, unassigned) [10-2 Isomer 1]
2. Cc1noc(N2CCCC(N3CCC(N4C[C@H](F)C[C@@H]4CO)CC3)CC2)n1 (single isomer, unassigned) [10-7 Isomer 1]

1. 5
2. 2
